Tested on: NCI-H2347
measurementProtocol: relative viability (nuclei count vs DMSO), 5 days (fraction); higher = more cells survive
conditionSummary: first compound 0.3162 µM
assayEndpoint: relative viability

CCN(CC)CCCCNc1ncc2cc(-c3cc(OC)cc(OC)c3)c(NC(=O)NC(C)(C)C)nc2n1 + C[C@@H](Oc1cc(-c2cnn(C3CCNCC3)c2)cnc1N)c1c(Cl)ccc(F)c1Cl [Crizotinib] (partner 1 µM) : 0.63
O=c1cc(N2CCOCC2)oc2c(-c3cccc4c3sc3ccccc34)cccc12 + O=C(CCCCCCC(=O)Nc1ccccc1)NO [Vorinostat] (partner 1 µM) : 0.595
O=c1cc(N2CCOCC2)oc2c(-c3cccc4c3sc3ccccc34)cccc12 + Cc1cc(Nc2cc(N3CCN(C)CC3)nc(Sc3ccc(NC(=O)C4CC4)cc3)n2)n[nH]1 [Tozasertib] (partner 0.1 µM) : 0.526
CCN(CC)CCCCNc1ncc2cc(-c3cc(OC)cc(OC)c3)c(NC(=O)NC(C)(C)C)nc2n1 + O=C(c1cc(Cc2n[nH]c(=O)c3ccccc23)ccc1F)N1CCN(C(=O)C2CC2)CC1 [Olaparib] (partner 8 µM) : 0.655
CCN(CC)CCCCNc1ncc2cc(-c3cc(OC)cc(OC)c3)c(NC(=O)NC(C)(C)C)nc2n1 + NC(=O)Nc1cc(-c2cccc(F)c2)sc1C(=O)N[C@H]1CCCNC1 [AZD7762] (partner 0.2 µM) : 0.748
O=c1cc(N2CCOCC2)oc2c(-c3cccc4c3sc3ccccc34)cccc12 + CC(=O)Nc1cccc(-n2c(=O)n(C3CC3)c(=O)c3c(Nc4ccc(I)cc4F)n(C)c(=O)c(C)c32)c1 [Trametinib] (partner 0.02 µM) : 0.309
O=c1cc(N2CCOCC2)oc2c(-c3cccc4c3sc3ccccc34)cccc12 + NC(=O)Nc1cc(-c2cccc(F)c2)sc1C(=O)N[C@H]1CCCNC1 [AZD7762] (partner 0.2 µM) : 0.714
CCN(CC)CCCCNc1ncc2cc(-c3cc(OC)cc(OC)c3)c(NC(=O)NC(C)(C)C)nc2n1 + CS(=O)(=O)N1CCN(Cc2cc3nc(-c4cccc5[nH]ncc45)nc(N4CCOCC4)c3s2)CC1 [Pictilisib] (partner 1 µM) : 0.89

Task item: # get_value(readout= relative viability, system= NCI-H2347) for CCN(CC)CCCCNc1ncc2cc(-c3cc(OC)cc(OC)c3)c(NC(=O)NC(C)(C)C)nc2n1 + Cc1nc(NC(=O)N2CCC[C@H]2C(N)=O)sc1-c1ccnc(C(C)(C)C(F)(F)F)c1 [Alpelisib] (partner 2 µM)
Reply: 1.09

Task item: # get_value(readout= relative viability, system= NCI-H2347) for O=c1cc(N2CCOCC2)oc2c(-c3cccc4c3sc3ccccc34)cccc12 + Cc1nc(Nc2ncc(C(=O)Nc3c(C)cccc3Cl)s2)cc(N2CCN(CCO)CC2)n1 [Dasatinib] (partner 0.075 µM)
Reply: 0.315

Task item: # get_value(readout= relative viability, system= NCI-H2347) for O=c1cc(N2CCOCC2)oc2c(-c3cccc4c3sc3ccccc34)cccc12 + C[C@@H](Oc1cc(-c2cnn(C3CCNCC3)c2)cnc1N)c1c(Cl)ccc(F)c1Cl [Crizotinib] (partner 1 µM)
Reply: 0.584
